Test system: ACHN renal
experiment-description: NCI tumour cell line growth inhibition, 48 h
readout-kind: TGI (µM)
The reply should be a number in µM, with the unit left off.

Worked examples, 2 compounds total:
INSERT INTO measurements (entry_smiles, readout_kind, u, recorded_measurement) VALUES
  ('Clc1ccc(C(n2cc(Br)cn2)n2cc(Br)cn2)cc1', 'TGI', 'µM', 27.6),
  ('N#C/C(=C\c1ccc(Br)cc1)n1nnc2ccc(F)cc21', 'TGI', 'µM', 2.06);

Alright, here's another compound for you.
Req: Param readout = TGI; param system = ACHN renal; param query = O=C1C(Cl)=C(Nc2ccc(S(=O)(=O)Nc3ccccn3)cc2)C(=O)c2ccccc21 ; response: value
Resp: 31.2

====

System: NCI/ADR-RES ovarian
experiment-description: NCI tumour cell line growth inhibition, 48 h; in the data active = GI50 below about 0.43 µM; inactive = the rest
Log the outcome using a class from Y for active, N for inactive

Consider the worked cases shown below.
INSERT INTO assay_data (entry_smiles, assigned_label) VALUES
  ('Cc1ccc(O)c(NC(=O)c2ccc(CNc3ccnc(C(F)(F)F)c3)cc2)c1', 'N'),
  ('Cn1cc(-c2ccc(-c3ccc(C4=NC5(CC5)C(=O)N4C[C@@H]4CCN(C(=O)C5CC5)C4)cc3)cc2)cn1', 'N'),
  ('O=C1C[C@@H]2/C(=C(O)\C=C\c3ccccc3)C(=O)C=C[C@@H]2O1', 'N');

Now look at this one.
Req: // outcome(item) with item = O=C1C(=O)c2cccnc2-c2ncccc21
Resp: Y

====

Test system: CCRF-CEM leukemia
experiment-description: NCI tumour cell line growth inhibition, 48 h
readout-kind: TGI (µM)
The reply should be a number in µM, with the unit left off.

Worked examples, 3 compounds total:
INSERT INTO results (compound, u, recorded_measurement) VALUES
  ('O=c1cccccc1[O-].O=c1cccccc1[O-].O=c1cccccc1[O-].[La+3]', 'µM', 51.3),
  ('Cc1ccc(S(=O)(=O)NNCNC(=O)c2ccccc2)cc1', 'µM', 63.2),
  ('Cn1cc2ccccc2c1-c1nc(F)nc(OCC(=O)[C@H]2CCC3[C@@H]4CCC5=CC(=O)CC[C@]5(C)C4[C@@H](O)C[C@@]32C)n1 (stereo not given in full)', 'µM', 27.5);

Req: Which TGI reading was recorded for the compound CCCSS[C@H]1NC(=O)[C@H]1NC(=O)COc1ccccc1 ?
Resp: 19.1

====

System: NCI/ADR-RES ovarian
experiment-description: NCI tumour cell line growth inhibition, 48 h
readout-kind: TGI

INSERT INTO assay_data (compound, study_target, recorded_measurement) VALUES
  ('Cc1ccccc1S(=O)(=O)Nn1cnc2ccc(S(=O)(=O)Nc3ccc(Cl)cc3)cc2c1=O', 'NCI/ADR-RES ovarian', '> 100 µM');

Alright, here's another compound for you.
Req: Which TGI reading was recorded for the compound CC(C)(C)OC(=O)N1C(c2cccnc2)=CC[C@H]2C3CC=C(c4cccnc4)[C@@]3(C)CC[C@@H]21 (some centres undefined) ?
Resp: 34.9 µM

====

System: LOX IMVI melanoma
experiment-description: NCI tumour cell line growth inhibition, 48 h
readout-kind: GI50

Worked examples, 5 compounds total:
INSERT INTO results (compound, readout_kind, recorded_measurement) VALUES
  ('N#C/C(=C\c1ccc(Br)cc1)n1nnc2ccc(F)cc21', 'GI50', '347 nM'),
  ('O=C1CCc2c(sc3[nH]c(=S)n(Cc4ccc(Cl)cc4)c(=O)c23)C1', 'GI50', '410 nM'),
  ('CCOC(=O)c1c2c(n3ccccc13)C(=O)c1ncccc1C2=O', 'GI50', '41.3 nM'),
  ('COC(C)(C)C/C=C/C(C)=C/C=C/C(C)=C\C=C\C(C)=C\C=C\C=C(C)\C=C\C=C(C)\C=C\C=C(C)\C=C\CC(C)(C)OC', 'GI50', '> 150 µg/mL'),
  ('O=C1c2ccccc2-c2c1c1ccccc1c(=O)n2CCCn1ccnc1', 'GI50', '924 nM');

Req: Param readout = GI50; param system = LOX IMVI melanoma; param query = CCN(CC)c1ccc(C(=O)c2ccc(N(CC)CC)cc2)cc1 ; response: value
Resp: 620 nM

Req: Param readout = GI50; param system = LOX IMVI melanoma; param query = C=C1C(=O)O[C@H]2[C@H]1CC/C(Cn1cc(-c3ccccc3C(F)(F)F)nn1)=C\CC[C@@]1(C)O[C@@H]21 ; response: value
Resp: 1110 nM

Req: Param readout = GI50; param system = LOX IMVI melanoma; param query = COc1cc(C2CC(c3ccc(Nc4ccnc5cc(Cl)ccc45)cc3)=NN2c2ccc(Cl)cc2)cc(OC)c1OC (centres undefined) ; response: value
Resp: 1660 nM

Req: Param readout = GI50; param system = LOX IMVI melanoma; param query = Cc1ccc(O)c(NC(=O)c2ccc(CNc3ccnc(C(F)(F)F)c3)cc2)c1 ; response: value
Resp: 5640 nM

====

Let's look at some compounds and their measured TGI.
Tested on: T-47D breast
experiment-description: NCI tumour cell line growth inhibition, 48 h
The reply should be a number in µM, with the unit left off.

INSERT INTO results (compound, recorded_measurement) VALUES
  ('Cc1cc(N2CCOCC2)cc2[nH]c(-c3c(NC[C@@H](O)c4cccc(Cl)c4)cc[nH]c3=O)nc12', 37.8),
  ('CC(C)NC(=O)CN1CCN(c2c(O)c3c(c(O)c2Cl)C(=O)C=CC3=O)CC1', 3.67),
  ('CC12CCC(Br)C(C)(C)C1CC=C1C(=O)OCC1O2 (stereo not given)', 45),
  ('O=c1c(-c2ccccc2)coc2cc(OC/C(=N/O)c3ccccc3)ccc12', 96.7),
  ('CN(Cc1cc(C(C)(C)C)cc(Br)c1O)Cc1cc(C(C)(C)C)cc(Br)c1O', 12.3);

Req: Which TGI reading was recorded for the compound O=C(NNC(=S)NC1CCCCC1)c1csc(NC(=S)NC2CCCCC2)n1 ?
Resp: 74.6

Req: Which TGI reading was recorded for the compound O=C1C(=O)c2cccnc2-c2ncccc21 ?
Resp: 0.461

Req: Which TGI reading was recorded for the compound CCCC(=O)Nc1cc(/C=C/C(=O)N2CC(CCl)c3c2cc(O)c2[nH]cc(C)c32)n(C)c1 (stereo not given) ?
Resp: 0.00884

Req: Which TGI reading was recorded for the compound CN(C)c1ccc(/C=C/c2cc[n+](C)c(/C=C/c3ccc(N(C)C)cc3)c2)cc1 ?
Resp: 1.3

Req: Which TGI reading was recorded for the compound O=C1C(Cl)=C(Nc2ccc(S(=O)(=O)Nc3ccccn3)cc2)C(=O)c2ccccc21 ?
Resp: 39.7

====

Test system: OVCAR-5 ovarian
experiment-description: NCI tumour cell line growth inhibition, 48 h
readout-kind: TGI

Worked examples, 2 molecules total:
INSERT INTO measurements (entry_smiles, recorded_measurement) VALUES
  ('O=C(OC[C@H]1O[C@H](OC(=O)c2cc(O)c(O)c(OC(=O)c3cc(O)c(O)c(O)c3)c2)[C@H](OC(=O)c2cc(O)c(O)c(OC(=O)c3cc(O)c(O)c(O)c3)c2)[C@@H](OC(=O)c2cc(O)c(O)c(OC(=O)c3cc(O)c(O)c(O)c3)c2)[C@@H]1OC(=O)c1cc(O)c(O)c(OC(=O)c2cc(O)c(O)c(O)c2)c1)c1cc(O)c(O)c(OC(=O)c2cc(O)c(O)c(O)c2)c1', '> 25 µM'),
  ('C/C(=N\NC(=S)NCCCNC(=S)N/N=C(\C)c1ccccn1)c1ccccn1', '> 90.3 µM');

Alright, here's another molecule for you.
Req: Which TGI reading was recorded for the molecule COc1ccccc1C(=O)c1c(NCc2ccccc2)c(=O)c1=O ?
Resp: > 100 µM

====

Let's look at some compounds and their measured GI50.
System: TK-10 renal
experiment-description: NCI tumour cell line growth inhibition, 48 h

Worked examples, 4 compounds total:
INSERT INTO results (compound, recorded_measurement) VALUES
  ('Cc1cnc(C(=O)Nc2nc3ccc(S(=O)(=O)Nc4ccc(C5(C(F)(F)F)CC5)cc4)cc3[nH]2)cn1', '1.48 µM'),
  ('Cc1ccc(Cl)cc1NC(=O)c1sc2nc3c(cc2c1N)C(=O)CCC3', '8.99 µM'),
  ('O=C1C(Cl)=C(NCc2ccco2)C(=O)c2ccccc21', '22.1 µM'),
  ('Cc1cnc(C(=O)NNc2nc3sc4c(c3c(=O)n2C)C(C)CCC4)cn1 (stereo not given)', '0.608 µM');

Req: Which GI50 reading was recorded for the compound O=C1c2ccccc2-c2c1c1ccccc1c(=O)n2CCCn1ccnc1 ?
Resp: 1.97 µM

====

System: NCI/ADR-RES ovarian
experiment-description: NCI tumour cell line growth inhibition, 48 h; in the data active = GI50 below about 0.43 µM; inactive = the rest
Log the outcome using a class from active, inactive

Consider the worked cases shown below.
INSERT INTO measurements (compound, assigned_label) VALUES
  ('CN(C)c1ccc(/C=C/c2cc[n+](C)c(/C=C/c3ccc(N(C)C)cc3)c2)cc1', 'inactive'),
  ('Cc1ncc(C(=O)Nc2ccc(CN3CCN(C)CC3)c(C(F)(F)F)c2)cc1C#Cc1cnc(N)cc1C#N', 'inactive'),
  ('OCC#Cc1ccccc1C#CCCCCCC#Cc1ccccc1C#CCO', 'inactive'),
  ('C=C1CC2(OC1=O)C(=O)Nc1ccccc12 (stereo not given)', 'inactive');

Req: // outcome(item) with item = CCN(CC)c1ccc(C(=O)c2ccc(N(CC)CC)cc2)cc1
Resp: active

The values you see were collected from PubChem BioAssay (NCI).
